These measurements were taken from patent US4895842A.

target: human plasma kallikrein (Homo sapiens, UniProt P03952); assay: Anti-plasma kallikrein activity: inhibition of S-2302 decomposition; assay type: biochemical; conditions: Table 2; S-2302 substrate, pH 7.8, 37° C.; read-out: Plasma Kallikrein S-2302 (I50)
Sequence (P03952 391-638 limits assumed): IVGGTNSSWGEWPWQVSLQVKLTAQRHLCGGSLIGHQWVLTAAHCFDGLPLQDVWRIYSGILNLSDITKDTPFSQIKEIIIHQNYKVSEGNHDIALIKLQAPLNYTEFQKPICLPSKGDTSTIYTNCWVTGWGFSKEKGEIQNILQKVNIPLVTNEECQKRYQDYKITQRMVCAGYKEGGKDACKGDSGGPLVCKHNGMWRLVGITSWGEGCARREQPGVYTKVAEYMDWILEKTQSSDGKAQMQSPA
Sequence (P03952 20-390 partner limits assumed): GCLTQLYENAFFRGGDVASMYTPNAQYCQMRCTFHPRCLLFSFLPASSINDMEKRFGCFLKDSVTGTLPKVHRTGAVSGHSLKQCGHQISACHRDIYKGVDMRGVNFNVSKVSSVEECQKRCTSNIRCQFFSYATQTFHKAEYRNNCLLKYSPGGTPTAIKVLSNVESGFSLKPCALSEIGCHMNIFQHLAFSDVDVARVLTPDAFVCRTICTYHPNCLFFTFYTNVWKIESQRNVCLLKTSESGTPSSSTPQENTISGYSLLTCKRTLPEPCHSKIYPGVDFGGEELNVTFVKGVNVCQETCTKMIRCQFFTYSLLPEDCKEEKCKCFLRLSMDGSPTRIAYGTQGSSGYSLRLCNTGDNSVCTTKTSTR
measured.endpoint: IC50 (nM)
Expressed in nM, but write only the number.

Example compounds with recorded IC50:
compound: NC[C@H]1CC[C@H](C(=O)N[C@@H](Cc2ccc(OCc3cccc(Cl)c3)cc2)C(=O)Nc2ccnc(Cl)c2)CC1 [compound 128]
IC50 / nM: 440
--
compound: CC(=O)c1ccc(NC(=O)[C@H](Cc2ccc(OC(=O)OCc3ccccc3Cl)cc2)NC(=O)[C@H]2CC[C@H](CN)CC2)cc1 [compound 145]
IC50 / nM: 750
--
compound: CC(=O)c1ccc(NC(=O)[C@H](Cc2ccc(OCc3cccc([N+](=O)[O-])c3)cc2)NC(=O)[C@H]2CC[C@H](CN)CC2)cc1 [compound 54]
IC50 / nM: 450

We now examine a further compound.
query: Observed IC50 on human plasma kallikrein (Homo sapiens, UniProt P03952) for CCOC(=O)c1ccc(COc2ccc(C[C@H](NC(=O)[C@H]3CC[C@H](CN)CC3)C(=O)Nc3ccc(C(C)=O)cc3)cc2)cc1 [compound 86] , please.
result: 420

----------
The entries below come with measured IC50 values attached.
biological target: bovine thrombin (Bos taurus, UniProt P00735); assay: Antithrombin activity: inhibition of fibrin formation from fibrinogen; format: biochemical
Structures can show the parent of a compound that is named as a salt.

Example molecules with recorded IC50:
molecule: CC(=O)c1ccc(NC(=O)C(Cc2ccc(Oc3cc(Cl)ccc3[N+](=O)[O-])cc2)NC(=O)C2CCC(CN)CC2)cc1 (stereo not shown)
study.target: bovine thrombin (Bos taurus, UniProt P00735)
IC50: > 50 µM

molecule: NCc1ccc(C(=O)N[C@@H](Cc2ccc(OCc3ccccc3)cc2)C(=O)N2CCC(C(=O)c3ccccc3)CC2)cc1
study.target: bovine thrombin (Bos taurus, UniProt P00735)
IC50: > 25 µM

molecule: NC[C@H]1CC[C@H](C(=O)N[C@@H](Cc2ccc(Oc3cc(Cl)ccc3[N+](=O)[O-])cc2)C(=O)Nc2ccncc2)CC1 [Compound No. 137, dihydrochloride]
study.target: bovine thrombin (Bos taurus, UniProt P00735)
IC50: > 200 µM

molecule: CC(=O)c1ccc(NC(=O)[C@H](Cc2ccc(Oc3ccc([N+](=O)[O-])cc3)cc2)NC(=O)[C@H]2CC[C@H](CN)CC2)cc1 [Compound No. 95, hydrochloride]
study.target: bovine thrombin (Bos taurus, UniProt P00735)
IC50: > 100 µM

query: Fill blank: measured IC50 of the molecule NC[C@H]1CC[C@H](C(=O)NC(Cc2ccc([N+](=O)[O-])cc2)C(=O)Nc2ccc(C(=O)c3ccccc3)cc2)CC1 (mixture of isomers) [Compound No. 31, hydrochloride] is ____.
result: > 100 µM

query: Okay, and CC(=O)c1ccc(NC(=O)[C@H](Cc2ccc(OCc3cccc(C(F)(F)F)c3)cc2)NC(=O)[C@H]2CC[C@H](CN)CC2)cc1 ?
result: > 50 µM

query: Okay, and NC[C@H]1CC[C@H](C(=O)NC(Cc2ccc(N)cc2)C(=O)Nc2ccc(C(=O)c3ccccc3)cc2)CC1 (stereo partly shown) ?
result: > 200 µM

query: Okay, and CC(=O)c1ccc(NC(=O)[C@H](Cc2ccc(OCc3c(Cl)cccc3Cl)cc2)NC(=O)[C@H]2CC[C@H](CN)CC2)cc1 ?
result: > 25 µM

query: Okay, and NC[C@H]1CC[C@H](C(=O)N[C@@H](Cc2ccc(OCc3ccccc3)cc2)C(=O)Nc2ccc(S(N)(=O)=O)cc2)CC1 [Compound No. 47, hydrochloride] ?
result: > 200 µM

query: Okay, and CCOC(=O)c1ccc(COc2ccc(C[C@H](NC(=O)[C@H]3CC[C@H](CN)CC3)C(=O)Nc3ccc(C(C)=O)cc3)cc2)cc1 ?
result: > 50 µM

----------
biological target: bovine thrombin (Bos taurus); assay: Antithrombin activity: inhibition of S-2238 decomposition; format: biochemical; conditions: Table 2; S-2238 substrate, pH 8.3, 37° C.; read-out: Thrombin S-2238 (I50)
pIC50: −log10 of the molar value. Counter-ions that a name gives are not always drawn.
measured.endpoint: pIC50

Example molecules with recorded pIC50:
molecule: CC(=O)c1ccc(NC(=O)[C@H](Cc2ccc(OCc3c(Cl)cccc3Cl)cc2)NC(=O)[C@H]2CC[C@H](CN)CC2)cc1
pIC50: < 4.30

molecule: NC[C@H]1CC[C@H](C(=O)NC(Cc2ccc([N+](=O)[O-])cc2)C(=O)Nc2ccc(C(=O)c3ccccc3)cc2)CC1 (mixture of isomers) [Compound No. 31, hydrochloride]
pIC50: < 4.00

molecule: C=CCOc1ccc(C[C@H](NC(=O)[C@H]2CC[C@H](CN)CC2)C(=O)Nc2ccc(C(C)=O)cc2)cc1
pIC50: 3.14

molecule: CC(=O)c1ccc(NC(=O)[C@H](Cc2ccc(OC(C)C)cc2)NC(=O)[C@H]2CC[C@H](CN)CC2)cc1
pIC50: < 3.40

molecule: CC(=O)c1ccc(NC(=O)[C@H](Cc2ccc(Oc3ccc([N+](=O)[O-])cc3)cc2)NC(=O)[C@H]2CC[C@H](CN)CC2)cc1 [Compound No. 95, hydrochloride]
pIC50: < 3.40

query: Observed pIC50 on bovine thrombin (Bos taurus) for CC1CCC(NC(=O)[C@H](Cc2ccc(OCc3ccccc3)cc2)NC(=O)c2ccc(CN)cc2)CC1 (stereo partly shown) , please.
result: < 4.30

query: Okay, and CSc1ccc(NC(=O)[C@H](Cc2ccc(OCc3ccccc3)cc2)NC(=O)[C@H]2CC[C@H](CN)CC2)cc1 ?
result: < 4.30

query: Okay, and NC[C@H]1CC[C@H](C(=O)N[C@@H](Cc2ccc(OCc3ccc(Cl)c(Cl)c3)cc2)C(=O)Nc2ccncc2)CC1 ?
result: < 3.70

query: Okay, and NCc1ccc(C(=O)N[C@@H](Cc2ccc(OCc3ccccc3)cc2)C(=O)N2CCC(C(=O)c3ccccc3)CC2)cc1 ?
result: < 4.30

query: Okay, and CC(=O)c1ccc(NC(=O)[C@H](Cc2ccc(OCc3cccc([N+](=O)[O-])c3)cc2)NC(=O)[C@H]2CC[C@H](CN)CC2)cc1 ?
result: < 3.70

----------
The entries below come with measured IC50 values attached.
target: bovine thrombin (Bos taurus, UniProt P00735); assay: Antithrombin activity: inhibition of S-2238 decomposition; format: biochemical; conditions: Table 2; S-2238 substrate, pH 8.3, 37° C.; read-out: Thrombin S-2238 (I50)
Structures can show the parent of a compound that is named as a salt.

Example molecules with recorded IC50:
molecule: CCOC(=O)C1CCCC(NC(=O)[C@H](Cc2ccc(OCc3ccc(F)cc3)cc2)NC(=O)c2ccc(CN)cc2)C1 (stereo partly drawn) [compound 105]
IC50: > 50 µM

molecule: NCc1ccc(C(=O)N[C@@H](Cc2ccc(OCc3ccccc3)cc2)C(=O)NCc2ccncc2)cc1 [Compound No. 96, dihydrochloride]
IC50: > 100 µM

molecule: NCC1CCC(C(=O)NC(Cc2ccc(OCc3ccccc3)cc2)C(=O)NCc2ccc(F)cc2)CC1 (stereo not drawn) [compound 111]
IC50: > 50 µM

molecule: CC1CCC(NC(=O)C(Cc2ccc(Oc3ccc([N+](=O)[O-])cc3)cc2)NC(=O)c2ccc(CN)cc2)CC1C (stereo not drawn) [compound 109]
IC50: > 50 µM

molecule: CC(=O)c1ccc(NC(=O)[C@H](Cc2ccc(Oc3ccc([N+](=O)[O-])cn3)cc2)NC(=O)[C@H]2CC[C@H](CN)CC2)cc1 [Compound No. 121, hydrochloride]
IC50: 280 µM

query: Fill blank: measured IC50 of the molecule NC[C@H]1CC[C@H](C(=O)N[C@@H](Cc2ccccc2)C(=O)Nc2ccc(C(=O)c3ccccc3)cc2)CC1 [Compound No. 1] is ____.
result: > 100 µM

query: Okay, and CCOC(=O)C1CCCC(NC(=O)[C@H](Cc2ccc(OCc3cccc(Cl)c3)cc2)NC(=O)[C@H]2CC[C@H](CN)CC2)C1 (stereo partly drawn) [compound 70] ?
result: 170 µM

query: Okay, and NC[C@H]1CC[C@H](C(=O)N[C@@H](Cc2ccc(Oc3cc(Cl)ccc3[N+](=O)[O-])cc2)C(=O)Nc2ccncc2)CC1 [Compound No. 137, dihydrochloride] ?
result: > 400 µM

query: Okay, and NC[C@H]1CC[C@H](C(=O)N[C@@H](Cc2ccc(OCc3ccccc3)cc2)C(=O)Nc2cccc([N+](=O)[O-])c2)CC1 [compound 44] ?
result: > 500 µM

query: Okay, and NC[C@H]1CC[C@H](C(=O)NC(Cc2ccc(N)cc2)C(=O)Nc2ccc(C(=O)c3ccccc3)cc2)CC1 (stereo partly drawn) [compound 33] ?
result: > 200 µM
